Numbers sourced from patent US20240182536A1.

HEK-Blue activity, +100 nM BP, DF-100,000 for assorted binders
- SUBJECT_OF_TEST: T1, interleukin 18 binding protein (IL-18BP) (UniProt O95998 31-194)
- T1 sequence (looked up): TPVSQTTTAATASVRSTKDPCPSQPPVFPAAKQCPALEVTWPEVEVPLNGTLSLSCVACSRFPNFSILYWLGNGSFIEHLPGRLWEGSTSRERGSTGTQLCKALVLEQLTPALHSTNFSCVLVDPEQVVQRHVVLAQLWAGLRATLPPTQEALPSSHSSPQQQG
- PROTOCOL_NOTES: cell-based or functional assay; note: unit not given here
Answer with the value's number alone.

# annotated cases, reported HEK-Blue activity, +100 nM BP, DF-100,000 shown
BINDER	ENDPOINT_VALUE
IL-18 variant K53Y, S55V (ligand) YFGKLESKLSVIRNLNDQVLFIDQGNRPLFEDMTDSDMRDNAPRTIFIISMYYDVQPRGMAVTISVKSEKISTLSSENKIISFKEMNPPDNIKDTKSDIIFFQRSVPGHDNKMQFESSSYEGYFLASEKERDLFKLILKKEDELGDRSIMFTVQNED	0.14
IL-18 variant T34N, S36Y, D40H, N41T, K53G, S55Y (ligand) YFGKLESKLSVIRNLNDQVLFIDQGNRPLFEDMNDYDMRHTAPRTIFIISMYGDYQPRGMAVTISVKSEKISTLSSENKIISFKEMNPPDNIKDTKSDIIFFQRSVPGHDNKMQFESSSYEGYFLASEKERDLFKLILKKEDELGDRSIMFTVQNED	0.09

Proceeding to the next binder to report its HEK-Blue activity, +100 nM BP, DF-100,000.
// IL-18 variant K53L, S55E (ligand) YFGKLESKLSVIRNLNDQVLFIDQGNRPLFEDMTDSDMRDNAPRTIFIISMYLDEQPRGMAVTISVKSEKISTLSSENKIISFKEMNPPDNIKDTKSDIIFFQRSVPGHDNKMQFESSSYEGYFLASEKERDLFKLILKKEDELGDRSIMFTVQNED : HEK-Blue activity, +100 nM BP, DF-100,000 value = 0.09
